# Assay: Selectivity index, ratio of cytotoxicity against mouse RAW264.7 cells to IC50 for Trypanosoma brucei gambiense
# Format: toxicity, cell-based
# Measurement setup: read-out: Selectivity Index
Quantity name: selectivity ratio

Kindly note the recorded selectivity ratio for `CC(=O)NCCSCC(=O)NCCCNCCCCNCCCN.Cl` , which is > 52

====

# Test system: Leishmania donovani
# Assay: Antikinetoplastid activity against Leishmania donovani LV9 […] amastigotes in mouse RAW264.7 cells assessed as viability measured 24 hrs by SYBR green assay
# Assay type: functional, organism-based
# Measurement setup: LV9, RAW264.7, 24 h
The entries below come with measured IC50 values attached.

Please review the entries below; each comes with its answer.
[
  {
    "Molecule": "CC(=O)NCCC(=O)NCCSCC(=O)NCCCNCCCCNCCCN.Cl",
    "Quantity name": "IC50",
    "Result": "> 100 µM"
  },
  {
    "Molecule": "COCC(=O)N(CCCN)CCCCN.Cl",
    "Quantity name": "IC50",
    "Result": "> 100 µM"
  }
]

Memo: `CC(=O)NCCC(=O)NCCSCC(=O)NCCCNCCCCN.Cl` , reported IC50: > 100 µM

IC50 in this record for `COCC(=O)NCCCN(CCCCNC(=O)OC(C)(C)C)C(=O)OC(C)(C)C` : > 100 µM

Entry source: ChEMBL document CHEMBL3352702
